From: PubChem BioAssay (NCI)

The following molecules are listed with their measured TGI values.
# Test system: MCF7 breast
# assay_info: NCI tumour cell line growth inhibition, 48 h
Please reply with the bare figure in µM and do not write the unit itself.

| smiles_record | experimental_target | unit_of_measure | TGI |
| --- | --- | --- | --- |
| COc1cnc2c(c1)C(=O)c1c-2n(CCCNC(C)C)c(=O)c2cc(F)ccc12 | MCF7 breast | µM | 2.08 |

Item `C=C(CN1CCN(c2cccc(C(F)(F)F)n2)CC1)c1ccc(C(=S)Nc2ccccc2N)cc1` ; assay system MCF7 breast; TGI reported as 14.5

###

The following molecules are listed with their measured TGI values.
# System: MDA-MB-435
# assay_info: NCI tumour cell line growth inhibition, 48 h

The following molecules have reported results that may help.
| molecule | value_measured |
| --- | --- |
| COC(=O)C1C2CC3C1C3C2C(=O)OC (stereo not given) | > 100 µM |
| O=c1oc2ccc(-n3c(=O)c4ccccc4c4ccccc4c3=O)cc2c2ccccc12 | > 100 µM |
| CC(O)C1(CNc2cc(Cl)nc(N)n2)CC(CCc2ccccc2)C1 (stereo not given) | 26.6 µM |
| COCn1c(C)c(C)c2c(=O)oc(N(C)C)nc21 | > 100 µM |
| CCCCCCCCCCCCOC1C(C(CC(=O)N2CCN(c3cccc(C(F)(F)F)c3)CC2)NS(=O)(=O)c2cc(Cl)cc(Cl)c2)OC2OC(C)(C)OC21 (stereo not given) | > 100 µM |
| CC(=N\N=C\c1ccccn1)/C(C)=N/N=C(C)/C(C)=N/N=C/c1ccccn1 | > 100 µM |
| Cl/C(=C\C=Nc1ccc(I)cc1)c1ccc2ccccc2c1 | 28 µM |
| CN1CCN(CCCCN2c3ccccc3Sc3cc(N=[N+]=[N-])ccc32)CC1 | 3.17 µM |

TGI for COC(=O)c1c2c(cc3c1CC1(Cc4cc5c(cc4C1=O)CCC5)C3)CCC2 (stereo not given) is > 100 µM

TGI for `Clc1ccc(-c2ccc(-c3nn4c(CNc5ccccc5)nnc4s3)o2)c(Cl)c1` is > 100 µM

###

The following compounds are listed with their measured GI50 values.
# Tested on: CCRF-CEM leukemia
# assay_info: NCI tumour cell line growth inhibition, 48 h

The following compounds have reported results that may help.
| compound | property_measured | value_measured |
| --- | --- | --- |
| O=C(NN=C1CCCCC1)c1[nH]c2ccc(F)cc2c1-c1ccccc1 | GI50 | 17.7 µM |
| Cc1cc(O)cc(C)c1/C=C/c1cncc(-c2nn[nH]n2)c1 | GI50 | > 25 µM |
| C/C(=C(\c1ccc(OCCN2CCCCCC2)cc1)c1ccc(OC(=O)Cc2ccccc2)cc1)c1ccc(Cl)cc1 | GI50 | 3.2 µM |
| C/C(=C\COc1c2c(cc3c1CCO3)OC1(C=C2)OC(CC/C(C)=C/COc2c3ccoc3cc3oc(=O)ccc23)C(C)(C)O1)CCC(O)C(C)(C)O (stereo not given) | GI50 | 8.78 µM |

GI50 for Cc1cc(Oc2ccc3nc(COc4ccc(CC5SC(=O)NC5=O)cc4)n(C)c3c2)cc(C)c1N (stereo not given) is 30.9 µM

###

# Test system: SK-MEL-5 melanoma
# assay_info: NCI tumour cell line growth inhibition, 48 h
The following molecules are listed with their measured TGI values.

The following molecules have reported results that may help.
| molecule | TGI |
| --- | --- |
| CCCCCCCCCCCCCCCCOCC(CCl)OP(=O)(O)OP(=O)(O)OCC1OC(n2ccc(N)nc2=O)C(O)C1O (stereo not given) | > 100 µM |
| CCOC(=O)c1ccc(Nc2nc3ccccc3nc2C(=O)OCC)cc1 | > 100 µM |
| COc1cccc(Cc2cc(=O)c3ccc(C)nc3[nH]2)c1 | > 100 µM |
| O=C(Nc1nc2ccc(F)cc2s1)c1cccnc1Nc1ccc(Cl)cc1 | 3.38 µM |
| COc1ccc(C=C(c2ccc(OCc3ccccc3)cc2)c2ccc(OCc3ccccc3)cc2)cc1 | > 100 µM |
| C#CCCCOc1ncccn1 | > 100 µM |
| CC1OC(OC2C(CO)OC(O[C@H]3CC[C@@]4(C)C(=CC[C@H]5[C@@H]6C[C@@H]7O[C@]8(CC[C@@H](C)CN8)[C@@H](C)[C@@H]7[C@@]6(C)CC[C@@H]54)C3)C(O)C2O)C(O)C(O)C1O (stereo not given in full) | > 100 µM |
| C[C@H]1[C@H]2[C@H]3CC[C@@H]4[C@@]5(C)C/C(=C/c6cccnc6)C(=O)C(C)(C)[C@@H]5CC[C@@]4(C)[C@]3(C)CC[C@]23CO[C@]1(C)[C@@H](C(=O)/C=C\c1cccnc1)C3 | 1.54 µM |

Item `Nc1ncnc2c1ncn2[C@H]1CC[C@@H](NO)C1` ; assay system SK-MEL-5 melanoma; TGI reported as > 100 µM

Item `COc1ccc(-c2nc(N3CCN(C(=O)C4CCCCC4)CC3)c3c4c(sc3n2)CCCC4)cc1` ; assay system SK-MEL-5 melanoma; TGI reported as > 100 µM

Item COC(=O)C1C2CC3C1C3C2C(=O)OC (stereo not given) ; assay system SK-MEL-5 melanoma; TGI reported as > 100 µM

Item CN1CC(CNC(=O)OCc2ccccc2)CC2c3cccc4c3c(cn4C)CC21 (stereo not given) ; assay system SK-MEL-5 melanoma; TGI reported as 2.86 µM

Item `COc1cc(/C=C/C(=O)CC(=O)/C=C/c2ccc(O)c(OC)c2)ccc1O` ; assay system SK-MEL-5 melanoma; TGI reported as 22.5 µM

Item O=C1CC(O)(c2ccccc2)C(c2ccccc2)=C1c1ccccc1 (stereo not given) ; assay system SK-MEL-5 melanoma; TGI reported as 86.7 µM

Item CCOC(=O)C1=CC(C)(C(=O)OCC)Nc2c(nc(OC)[nH]c2=O)N1 (stereo not given) ; assay system SK-MEL-5 melanoma; TGI reported as > 10 µM

Item O=S(=O)(c1ccccc1)C1(CCC2OCCO2)C=CC2(CC1)OCCO2 (stereo not given) ; assay system SK-MEL-5 melanoma; TGI reported as > 100 µM

Item `CCCC(=O)O.CCCC(=O)O.CCCC(=O)O.CCCC(=O)O.[Rh].[Rh]` ; assay system SK-MEL-5 melanoma; TGI reported as 0.248 µM

Item `O=c1oc2ccc(-n3c(=O)c4ccccc4c4ccccc4c3=O)cc2c2ccccc12` ; assay system SK-MEL-5 melanoma; TGI reported as > 100 µM

Item `Clc1cc2n[se]nc2cc1Cl` ; assay system SK-MEL-5 melanoma; TGI reported as > 100 µM

Item `Cc1cc(O)cc(C)c1/C=C/c1cncc(-c2nn[nH]n2)c1` ; assay system SK-MEL-5 melanoma; TGI reported as > 25 µM
